B1: ZNF193 (parent)
chain: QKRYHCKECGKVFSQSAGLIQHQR

Variants of: B1
Experiment: protein stability index of a GFP-peptide fusion (GPS, HEK-293T) (PSI 1-6); higher = more stable;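 also: lentivirally expressed fusions sorted by FACS into six bins by GFP to DsRed ratio, PSI derived from sequencing read proportions per bin multiplied by bin number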
Conditions: c terminus: a fixed tail appended
experimental readout: protein stability index
Simply state the number, no unit and no words.

# example entries with known answers
variant spec	protein stability index
E8R	3.12
S16E	4.39
C6N	2.74
H22K	2.14
C6M	2.75
R24Y	2.5
F13Y	1.99
E8S	2.59

// query Can you share its protein stability index? I mean this variant: L19H
// result 2.58

// query Can you share its protein stability index? I mean this variant: L19S
// result 1.97
